Source: patent US20260042834A1

Target: T1, corticotropin-releasing hormone (CRH) peptide (human and mouse, not fully specified)
T1 peptide: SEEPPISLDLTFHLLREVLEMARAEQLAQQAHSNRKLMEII
Assay: cell-based or functional assay
readout.label: CHO-CRE-hCRHR1 0.5 nM CRH IC50
Value and unit, in that order.

Documented CHO-CRE-hCRHR1 0.5 nM CRH IC50 of PR303394 (antibody, human IgG1, kappa, V domains shown, also called analog of CTRND05) VH: EVQLQQSGPELVKPGVSMKISCKASGYSFTDSTMNWVKQSHGKNLEWIGLIHPDNGGTIYNQKFKGKATLTVHKSSSTAYMELLSLTSEDSAVYYCANGFAYWGQGTLVTVSA VL: DVVMTQTPLSLPVSLGDQASISCRSSQSLLHSNGNTYLHWYLQKPGQSPELLIYKVSNRFSGVPDRFSGSGSGTDFTLKISRVEAEDLGVYFCSQSTHVPLTFGAGTKLELKR : 2.77 nM

Record PR302341-60 (antibody, human IgG1, kappa, V domains shown, Humanized, PTM-removed variant of PR302341) VH: QVQLVQSGAEVKKPGASVKVSCKASGYTFTDYFMKWVRQAPGQRLEWMGVINPNQGDIFYNQKFKGRVTITRDTSASTAYMELSSLRSEDTAVYYCARGTDRALFAYWGQGTLVTVSS VL: DVVMTQSPLSLPVTLGQPASISCRSGQSIVHSDANTYLEWYQQRPGQSPRLLIYKVSNRFSGVPDRFSGSGSGTDFTLKISRVEAEDLGVYYCFQGSHIPWTFGGGTKVEIKR . Reported CHO-CRE-hCRHR1 0.5 nM CRH IC50: 0.878 nM

binder PR302341-55 (antibody, human IgG1, kappa, V domains shown, Humanized, PTM-removed variant of PR302341) VH: QVQLVQSGAEVKKPGASVKVSCKASGYTFTDYFMKWVRQAPGQRLEWMGVINPNNADIFYNQKFKGRVTITRDTSASTAYMELSSLRSEDTAVYYCARGTDRALFAYWGQGTLVTVSS VL: DVVMTQSPLSLPVTLGQPASISCRSGQSIVHSDGNTYLEWYQQRPGQSPRLLIYKVSNRFSGVPDRFSGSGSGTDFTLKISRVEAEDLGVYYCFQGSHIPWTFGGGTKVEIKR , CHO-CRE-hCRHR1 0.5 nM CRH IC50 observed: 0.105 nM
